test system: rat aorta; assay: Inhibition of calcium-induced contraction of isolated rat aorta strips (reduction of response to added calcium chloride in K+-containing saline); type: cell-based; conditions: 0.75 h; spirally cut rat aorta strips, 45 millimolar potassium, calcium 2 millimolar, test repeated with compound after 45 minutes; read-out: molar concentration of the compounds required to reduce the response by 50% (IC50)
Where a name gives a salt, the structure may show the parent alone.
Threshold 20 nM. IC50 below it: Yes. IC50 at it or above: No.

compound | targetOfAssay | class
CCOC(=O)C1=C(COCCN2CCN(C(=O)NC)CC2)NC(C)=C(C(=O)OC)C1c1cc(Cl)cc(Cl)c1 (stereo not shown) | rat aorta | No
CCOC(=O)C1=C(COCCN2CCN(C(=O)c3ccco3)CC2)NC(C)=C(C(=O)OC)C1c1ccccc1Cl (stereo not shown) | rat aorta | No
CCOC(=O)C1=C(COCCN2CCN(C(N)=NC#N)CC2)NC(C)=C(C(=O)OC)C1c1ccccc1Cl (stereo not shown) | rat aorta | No
CCOC(=O)C1=C(COCC(C)N2CCN(C(=O)NC(C)C)CC2)NC(C)=C(C(=O)OC)C1c1ccccc1Cl (stereo not shown) | rat aorta | Yes
CCOC(=O)C1=C(COCCN2CCN(C(=O)NC3CC3)CC2)NC(C)=C(C(=O)OC)C1c1ccccc1Cl (stereo not shown) | rat aorta | Yes
CCOC(=O)C1=C(COCCN2CCN(C(=O)N3CCOCC3)CC2)NC(C)=C(C(=O)OC)C1c1ccccc1Cl (stereo not shown) | rat aorta | Yes
CCOC(=O)C1=C(COCCN2CCN(C(=S)NC)CC2)NC(C)=C(C(=O)OC)C1c1ccccc1Cl (stereo not shown) [Example 10, hydrochloride salt] | rat aorta | Yes
CCOC(=O)C1=C(COCCN2CCN(C(=NC#N)N3CCCC3)CC2)NC(C)=C(C(=O)OC)C1c1ccccc1Cl (stereo not shown) | rat aorta | Yes
CCOC(=O)C1=C(COCCN2CCN(C(N)=O)CC2)NC(C)=C(C(=O)OC)C1c1ccccc1Cl (stereo not shown) | rat aorta | Yes
CCOC(=O)C1=C(COCC(C)(C)N2CCN(C(=O)NC)CC2)NC(C)=C(C(=O)OC)C1c1ccccc1Cl (stereo not shown) | rat aorta | Yes
CCOC(=O)C1=C(COCCN2CCN(C=O)CC2)NC(C)=C(C(=O)OC)C1c1ccccc1Cl (stereo not shown) [Example 51, bisoxalate salt] | rat aorta | Yes
CCOC(=O)C1=C(COCCN2CCN(S(C)(=O)=O)CC2)NC(C)=C(C(=O)OC)C1c1ccccc1Cl (stereo not shown) | rat aorta | Yes
CCOC(=O)C1=C(COCC(C)N2CCNCC2)NC(C)=C(C(=O)OC)C1c1ccccc1Cl (stereo not shown) | rat aorta | No
CCOC(=O)C1=C(COCCN2CCN(C(=O)NC)CC2)NC(C)=C(C(=O)OC)C1c1c(Cl)cccc1Cl (stereo not shown) | rat aorta | No
CCOC(=O)C1=C(COCCN2CCN(C(=O)NC)CC2)NC(C)=C(C(=O)OC)C1c1ccccc1C(F)(F)F (stereo not shown) | rat aorta | Yes
CCOC(=O)C1=C(COCCN2CCN(C(=NC)NC#N)CC2)NC(C)=C(C(=O)OC)C1c1ccccc1Cl (stereo not shown) [Example 1, oxalate salt] | rat aorta | Yes
CCOC(=O)C1=C(COCCN2CCN(C(=NC#N)NC(C)C)CC2)NC(C)=C(C(=O)OC)C1c1ccccc1Cl (stereo not shown) | rat aorta | Yes
CCOC(=O)C1=C(COCCN2CCN(C(=O)NC(C)(C)C)CC2)NC(C)=C(C(=O)OC)C1c1ccccc1Cl (stereo not shown) | rat aorta | Yes
CCOC(=O)C1=C(COCCN2CCN(C(=O)NC(C)C)CC2)NC(C)=C(C(=O)OC)C1c1ccccc1Cl (stereo not shown) | rat aorta | Yes
CCOC(=O)C1=C(COCC(C)(C)N2CCNCC2)NC(C)=C(C(=O)OC)C1c1ccccc1Cl (stereo not shown) | rat aorta | No
CCOC(=O)C1=C(COCCN2CCN(C(=O)NC)CC2)NC(C)=C(C(=O)OC)C1c1cccc(Cl)c1Cl (stereo not shown) | rat aorta | Yes
CCOC(=O)C1=C(COCCN2CCN(S(N)(=O)=O)CC2)NC(C)=C(C(=O)OC)C1c1ccccc1Cl (stereo not shown) [Example 53, hydrochloride hydrate] | rat aorta | No
CCOC(=O)C(=O)N1CCN(CCOCC2=C(C(=O)OCC)C(c3ccccc3Cl)C(C(=O)OC)=C(C)N2)CC1 (stereo not shown) | rat aorta | Yes
CCOC(=O)C1=C(COCCN2CCN(C(=O)N(C)C)CC2)NC(C)=C(C(=O)OC)C1c1ccccc1Cl (stereo not shown) [Example 41, hydrochloride salt] | rat aorta | Yes
CCOC(=O)C1=C(COCCN2CCN(C(=NC#N)N(C)C)CC2)NC(C)=C(C(=O)OC)C1c1ccccc1Cl (stereo not shown) | rat aorta | Yes
CCOC(=O)C1=C(COCCN2CCN(C(=O)Nc3ccc(F)cc3)CC2)NC(C)=C(C(=O)OC)C1c1ccccc1Cl (stereo not shown) | rat aorta | No
CCOC(=O)C1=C(COCCN2CCN(C(=O)NC)CC2)NC(C)=C(C(=O)OC)C1c1nccs1 (stereo not shown) | rat aorta | No
CCOC(=O)C1=C(COCC(C)N2CCN(C(=O)NC)CC2)NC(C)=C(C(=O)OC)C1c1ccccc1Cl (stereo not shown) | rat aorta | Yes
